Test system: E21 (patient-derived glioblastoma stem cells of mesenchymal subtype)
Assay: surviving fraction (nuclei count normalised to DMSO); higher = more cells surviving (less toxic)
Details: 37 nM; exposure time: 72 h
quantityKind: surviving fraction
Provide a numeric answer; units are not to be included.

Some solved cases for reference:
• O=C(C1CC1)N1CC[C@@H](Cc2n[nH]c(=O)n2-c2ccc(-c3ccc4occc4c3)cc2)C1 = 0.804
• CCn1cc(-c2ccnc3[nH]c(-c4cccc(CN(C)C)c4)cc23)c(-c2ccc(NC(=O)N(C)C)cc2)n1 = 0.442
• COc1cc2c(cc1O)CC[C@@H]1[C@@H]2CC[C@]2(C)[C@@H](O)CC[C@@H]12 = 0.919

We next turn to a different molecule, shown below.
Prompt: What value of measured surviving fraction is listed for "COC(=O)Nc1nc2cc(C(=O)c3ccc(F)cc3)ccc2[nH]1" ?
Completion: 0.954

====

Tested on: FT3469 (normal neural stem cell line)
Assay: phenotypic distance (Euclidean, principal components) from DMSO controls (arbitrary units); higher = stronger morphological change
Conditions: 111.1 nM; exposure time: 72 h
Counter-ions that a name gives are not always drawn.
quantityKind: phenotypic distance
Keep it simple and answer with nothing but the number.

Worked cases, phenotypic distance given:
- CCCSc1ccc2[nH]c(NC(=O)OC)nc2c1: 1.33
- Cc1cc(C(C)(C)CC(C)(C)C)ccc1OCCOCC[N+](C)(C)Cc1ccccc1 [Methyl benzethonium chloride]: 1.14
- Nc1nc(Cl)nc2c1ncn2[C@@H]1O[C@H](CO)[C@@H](O)[C@@H]1F: 1.95

Prompt: Please give the measured phenotypic distance for this compound: COc1cccc2c1C(=O)c1c(O)c3c(c(O)c1C2=O)C[C@@](O)(C(C)=O)C[C@@H]3O[C@H]1C[C@H](N)[C@H](O)[C@H](C)O1 [Daunorubicin hydrochloride]
Completion: 2.17

Prompt: Moving on to "Cc1ccc(C(=O)Nc2ccc(CN3CCN(C)CC3)c(C(F)(F)F)c2)cc1C#Cc1cnc2cccnn12"
Completion: 1.58

Prompt: Next compound up: N=C(N)NCc1cccc(I)c1 [Iobenguane sulfate]
Completion: 1.06

Prompt: Also need "Nc1nc2n[nH]nc2c(=O)[nH]1" , thanks.
Completion: 1.28

Prompt: What about this compound? "CN1CCC(NC(=O)c2cc(-c3c(O)cc(O)cc3Oc3ccc([N+](=O)[O-])cc3)on2)CC1"
Completion: 1.74

Prompt: Next compound: "CN(c1nccc(=O)[nH]1)C1CCN(c2nc3ccccc3n2Cc2ccc(F)cc2)CC1"
Completion: 0.797

Prompt: Query "CN(C(=O)CN(CCO)CC(=O)N(C)C(C)(C)Cc1ccccc1)C(C)(C)Cc1ccccc1" next
Completion: 0.534

====

Tested on: E57 (patient-derived glioblastoma stem cells of mesenchymal subtype)
Test: phenotypic distance (Euclidean, principal components) from DMSO controls (arbitrary units); higher = stronger morphological change
Details: 4.1 nM; exposure time: 72 h
Where a name gives a salt, the structure may show the parent alone.
quantityKind: phenotypic distance

// below: answered compounds
• COc1cc2c(cc1-c1c(C)noc1C)ncc1[nH]c(=O)n([C@H](C)c3ccccn3)c12 = 4.06
• NC(=O)c1ccccc1 [Benzamide] = 0.41
• Cc1c2ccncc2c(C)c2c1[nH]c1ccccc12 [Ellipticine] = 1.05
• CC1(C)S[C@@H]2[C@H](NC(=O)Cc3ccccc3)C(=O)N2[C@H]1C(=O)O [Benzylpenicillin sodium] = 0.898
• OCCN1CCN(CCCN2c3ccccc3Sc3ccc(Cl)cc32)CC1 [Perphenazine] = 1.04
• CC1(C(=O)O)C2CCC(O2)C1(C)C(=O)O (stereo unspecified) [Cantharidic Acid] = 0.632
• CNc1ccc2oc(C[C@H]3O[C@@]4(CC[C@H]3C)O[C@H]([C@H](C)C(=O)c3ccc[nH]3)[C@H](C)C[C@H]4C)nc2c1C(=O)O [Calcimycin] = 1.32
• CNCCCC12CCC(c3ccccc31)c1ccccc12 [Maprotiline hydrochloride] = 0.339

Prompt: Param item = C[C@@H](O[C@H]1OCCN(Cc2n[nH]c(=O)[nH]2)[C@H]1c1ccc(F)cc1)c1cc(C(F)(F)F)cc(C(F)(F)F)c1 [Aprepitant] ; retrieve measured phenotypic distance.
Completion: 0.607

Prompt: Entry COc1cc2c(c(OC)c1OC)-c1ccc(OC)c(=O)cc1[C@@H](NC(C)=O)CC2 [Colchicine] please
Completion: 4.26

Prompt: // query: CC[C@@H]1C(=O)N(C)c2cnc(Nc3ccc(C(=O)N[C@H]4CC[C@H](N5CCN(CC6CC6)CC5)CC4)cc3OC)nc2N1C(C)C [Volasertib]
Completion: 2.53

Prompt: Proceed to "Nc1ncnc2c1c(-c1ccc(Oc3ccccc3)cc1)cn2C1CCCC1"
Completion: 0.461

Prompt: Would you mind doing Nc1ccn([C@@H]2O[C@H](CO)[C@@H](O)[C@@H]2O)c(=O)n1 [Cytarabine] as well?
Completion: 2.41

====

System: E28 (patient-derived glioblastoma stem cells of classical subtype)
Assay: phenotypic distance (Euclidean, principal components) from DMSO controls (arbitrary units); higher = stronger morphological change
Settings: 1000 nM; exposure time: 72 h
Where a name gives a salt, the structure may show the parent alone.
Kindly return TRUE if reported phenotypic distance is no lower than 0.9; return FALSE if it is lower.

* CCCCC1C(=O)N(c2ccccc2)N(c2ccc(O)cc2)C1=O (stereo not drawn) | FALSE
* NCCCP(=O)(O)O | FALSE
* CC(=O)[C@]1(O)Cc2c(O)c3c(c(O)c2[C@@H](O[C@H]2C[C@H](N)[C@H](O)[C@H](C)O2)C1)C(=O)c1ccccc1C3=O | TRUE

Prompt: Assess whether reported phenotypic distance for CCCCCCC[N+](CC)(CC)CCCCc1ccc(Cl)cc1 [Clofilium tosylate] sits at 0.9 or higher.
Completion: TRUE

Prompt: Continue with C/C(=C\c1csc(C)n1)[C@@H]1C[C@@H]2O[C@]2(C)CCC[C@H](C)[C@H](O)[C@@H](C)C(=O)C(C)(C)[C@@H](O)CC(=O)N1 [Ixabepilone]
Completion: TRUE

Prompt: Let us now turn to Clc1ccc(COC(Cn2ccnc2)c2ccc(Cl)cc2Cl)cc1 (stereo not drawn) [Econazole nitrate]
Completion: FALSE

Prompt: # repeat for OCCN1CCN(CCCN2c3ccccc3Sc3ccc(C(F)(F)F)cc32)CC1 [Fluphenazine dihydrochloride]
Completion: FALSE

====

Consider the following compounds and their measured phenotypic distance readings.
Test system: E28
Test: phenotypic distance (Euclidean, principal components) from DMSO controls (arbitrary units); higher = stronger morphological change
Conditions: 1000 nM; exposure time: 72 h
Counter-ions that a name gives are not always drawn.
Would you mind answering with just the numeric figure?

Solved cases below.
• O=C(C1CC1)N1CC[C@@H](Cc2n[nH]c(=O)n2-c2ccc(-c3ccc4occc4c3)cc2)C1 = 3.85
• CCC[C@@H]1C[C@@H](C(=O)N[C@@H]([C@H]2O[C@H](SC)[C@H](O)[C@@H](O)[C@H]2O)[C@@H](C)O)N(C)C1 [Lincomycin hydrochloride] = 0.598

Prompt: Checklist item: phenotypic distance tested on E28, entry COC(=O)C1=C(C)NC(C)=C(C(=O)OCC(C)C)C1c1ccccc1[N+](=O)[O-] (centres undefined) [Nisoldipine] , value?
Completion: 0.908

====

Test system: FT3469
Assay: surviving fraction (nuclei count normalised to DMSO); higher = more cells surviving (less toxic)
Settings: 12.3 nM; exposure time: 72 h
Counter-ions that a name gives are not always drawn.
quantityKind: surviving fraction

- CN1C(=O)OC(C)(C)C1=O [Trimethadione]: 0.973

Prompt: Which surviving fraction is reported for this molecule? C[C@H](Cc1cc2c(c(C(N)=O)c1)N(CCCO)CC2)NCCOc1ccccc1OCC(F)(F)F [Silodosin]
Completion: 0.91

Prompt: For CN[C@@H](C)C(=O)N[C@H](C(=O)N1CCC[C@H]1C(=O)N[C@H]1c2ccccc2C[C@H]1OCC#CC#CCO[C@@H]1Cc2ccccc2[C@@H]1NC(=O)[C@@H]1CCCN1C(=O)[C@@H](NC(=O)[C@H](C)NC)C1CCCCC1)C1CCCCC1 [AZD5582] then?
Completion: 0.996

Prompt: Now the molecule CN(C(=O)CN(CCO)CC(=O)N(C)C(C)(C)Cc1ccccc1)C(C)(C)Cc1ccccc1 [Oxethazaine]
Completion: 0.979

Prompt: And the next one, Oc1c(Cl)cc(Cl)c(Cl)c1Cc1c(O)c(Cl)cc(Cl)c1Cl [Hexachlorophene] ?
Completion: 0.887

Prompt: Similarly, CCC(C)(C)c1ccc(CC(C)CN2C[C@@H](C)O[C@@H](C)C2)cc1 (stereo partly specified) [Amorolfine hydrochloride] ?
Completion: 0.924

====

System: E21
Assay: phenotypic distance (Euclidean, principal components) from DMSO controls (arbitrary units); higher = stronger morphological change
Conditions: 4.1 nM; exposure time: 72 h
Quick rule: phenotypic distance of at least 0.6 means Yes, below that means No.

- Nc1nc2n[nH]nc2c(=O)[nH]1: Yes
- C[C@H](NC(=O)[C@@H](O)c1cc(F)cc(F)c1)C(=O)N[C@@H]1C(=O)N(C)c2ccccc2-c2ccccc21: Yes
- CCC(=O)OCC(=O)[C@@]1(OC(=O)CC)[C@H](C)C[C@H]2[C@H]3[C@H]([C@@H](O)C[C@@]21C)[C@@]1(C)C=CC(=O)C=C1C[C@H]3Cl [Alclometasone dipropionate]: Yes
- C=C(C)[C@H]1Cc2c(ccc3c2O[C@@H]2COc4cc(OC)c(OC)cc4[C@@H]2C3=O)O1: No

Prompt: Threshold query (phenotypic distance >= 0.6) on "Nc1ccn([C@@H]2O[C@H](CO)[C@@H](O)[C@@H]2O)c(=O)n1"
Completion: Yes
